These data points were gathered from patent US20210380703A1.

System tested: T1, Human ACVR2A (human, UniProt P27037 20-135, limits assumed); further: test concentration or dose not given here
T1 construct: also called activin receptor, type II A
T1 sequence (P27037 20-135 limits assumed): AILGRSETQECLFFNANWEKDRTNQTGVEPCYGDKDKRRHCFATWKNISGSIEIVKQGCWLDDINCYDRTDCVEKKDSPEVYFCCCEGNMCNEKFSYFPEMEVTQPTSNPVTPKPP
Protocol details: ELISA
Observed property: optical density (OD)
Express your answer in OD, writing the number without its unit.

{"Binder": "366_H06 (antibody, V domains shown, VH/VL only) VH: EVQLLESGGGLVQPGGSLRLSCAASGFTFSSYGMNWVRQAPGKGLEWVSSINYNGGYTGYADSVKGRFTISRDNSKNTLYLQMNSLRAEDTAVYYCARSANWHDTALDYWGQGTLVTVSS VL: DIQMTQSPSSLSASVGDRVTITCRASQSILSYLNWYQQKPGKAPKLLIYATTSRASGVPSRFSGSGSGTDFTLTISSLQPEDFATYYCQQSYDTPLTFGGGTKVEIK", "Readout value": 2.29}

Please find the next binder below.
So what's the measured optical density for this one? 372_B09 (antibody, V domains shown, VH/VL only) VH: EVQLLESGGGLVQPGGSLRLSCAASGFTFSSYSMNWVRQAPGKGLEWVSSINYNSGYTSYADSVKGRFTISRDNSKNTLYLQMNSLRAEDTAVYYCARGATWHDTHLDYWGQGTLVTVSS VL: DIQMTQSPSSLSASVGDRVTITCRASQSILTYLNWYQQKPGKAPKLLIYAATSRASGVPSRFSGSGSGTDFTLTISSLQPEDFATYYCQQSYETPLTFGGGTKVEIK
3.11
